Target: somatostatin receptors (Rattus norvegicus, UniProt P30680)
Construct: endogenous in cells
Sequence (P30680 whole entry): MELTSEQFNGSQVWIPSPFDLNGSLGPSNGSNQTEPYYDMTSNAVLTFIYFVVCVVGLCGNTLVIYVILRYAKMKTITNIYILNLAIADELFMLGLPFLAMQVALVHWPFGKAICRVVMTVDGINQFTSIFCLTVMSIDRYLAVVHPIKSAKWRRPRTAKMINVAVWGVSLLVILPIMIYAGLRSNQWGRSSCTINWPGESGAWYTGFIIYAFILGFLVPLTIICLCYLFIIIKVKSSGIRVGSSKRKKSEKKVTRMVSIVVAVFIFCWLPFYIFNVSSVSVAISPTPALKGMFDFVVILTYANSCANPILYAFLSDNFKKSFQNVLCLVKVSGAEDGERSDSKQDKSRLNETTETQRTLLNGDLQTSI
Experiment: Inhibition of binding of [125I-Tyr11]somatostatin-14 to AR42J rat pancreatic tumor cell membranes
Conditions: uncomplexed peptides, displacement of [125I-Tyr11]somatostatin-14 (0.5 nM)
Numbered stars: 1 amine (or outer) side, 2 acyl side, 3 side chain; on linkers, the order of the positions; unused ones are H or OH. Bridge positions count the residues as written; N and C are the ends. Square brackets hold non-standard residues; d marks the D form. Peptide text beside a SMILES is read from it. * marks the point of attachment. hhCys(CH2CO) = O=C([C@H](CCCSCC(=O)[*:3])N[*:1])[*:2]; X9 = CC(C)(S)CNCCN(CCCCC(=O)*)CC(C)(C)S; X3 = CC(C)(S)CNCCN(CCCCCN*)CC(C)(C)S; NMeF = CN[C@@H](Cc1ccccc1)C(=O)O; hCys = N[C@@H](CCS)C(=O)O

molecule	Ki, nM
CC(C)[C@@H]1NC(=O)[C@H](CCCCN)NC(=O)[C@@H](Cc2c[nH]c3ccccc23)NC(=O)[C@H](Cc2ccc(O)cc2)NC(=O)[C@H](Cc2ccccc2)N(C)C(=O)[C@H](CCC(=O)NCCCCCN(CCNCC(C)(C)S)CC(C)(C)S)NC1=O [cyclo.(N--CH3)F.YWD KV.E.[BAM]] (cyclo([NMeF]Y[dW]KVE(X3)))	2.6
C[C@@H](O)[C@@H]1NC(=O)[C@H](CCCCN)NC(=O)[C@@H](Cc2c[nH]c3ccccc23)NC(=O)[C@H](Cc2ccc(O)cc2)NC(=O)[C@H](Cc2ccccc2)NC(=O)CSC[C@@H](C(N)=O)NC(=O)[C@H](Cc2ccccc2)NC1=O [CH2 CO.FYWD KTFC.amide] ({CH2CO}-FY[dW]KTFC-NH2; thioether N-7)	0.16
C[C@@H](O)[C@@H]1NC(=O)[C@H](CCCCN)NC(=O)[C@@H](Cc2c[nH]c3ccccc23)NC(=O)[C@H](Cc2ccccc2)NC(=O)[C@H](Cc2ccccc2)NC(=O)CSC[C@@H](C(N)=O)NC(=O)[C@H](Cc2ccccc2)NC1=O [CH2 CO.FFWD KTFC.amide] ({CH2CO}-FF[dW]KTFC-NH2; thioether N-7)	0.45
C[C@@H](O)[C@@H]1NC(=O)[C@H](CCCCN)NC(=O)[C@@H](Cc2c[nH]c3ccccc23)NC(=O)[C@H](Cc2ccccc2)NC(=O)[C@H](Cc2ccccc2)NC(=O)CSCC[C@@H](C(=O)O)NC(=O)[C@H](Cc2ccccc2)NC1=O [CH2 CO.FFWD KTF.Hcy] ({CH2CO}-FF[dW]KTF[hCys]-OH; thioether N-7)	9.8
C[C@@H](O)[C@@H]1NC(=O)[C@H](CCCCN)NC(=O)[C@@H](Cc2c[nH]c3ccccc23)NC(=O)[C@H](Cc2ccccc2)NC(=O)[C@H](Cc2ccccc2)NC(=O)CSC[C@@H](C(=O)O)NC(=O)[C@H](Cc2ccccc2)NC1=O [CH2 CO.FFWD KTFC] ({CH2CO}-FF[dW]KTFC-OH; thioether N-7)	4
C[C@@H](O)[C@@H]1NC(=O)[C@H](CCCCN)NC(=O)[C@@H](Cc2c[nH]c3ccccc23)NC(=O)[C@H](Cc2ccccc2)NC(=O)[C@H](Cc2ccccc2)NC(=O)CSC[C@@H](C(=O)NCCCCCN(CCNCC(C)(C)S)CC(C)(C)S)NC(=O)[C@H](Cc2ccccc2)NC1=O [CH2 CO.FFWD KTFC.[BAM]] ({CH2CO}-FF[dW]KTFC-X3; thioether N-7)	1.9
C[C@@H](O)[C@@H]1NC(=O)[C@H](Cc2ccccc2)NC(=O)[C@H]([C@@H](C)O)NC(=O)[C@H](CCCCN)NC(=O)[C@@H](Cc2c[nH]c3ccccc23)NC(=O)[C@H](Cc2ccccc2)NC(=O)[C@H](Cc2ccccc2)NC(=O)[C@H](CC(N)=O)NC(=O)CSC[C@@H](C(=O)O)NC1=O [CH2 CO.NFFWD KTFTC] ({CH2CO}-NFF[dW]KTFTC-OH; thioether N-9)	2.7
CC(C)[C@@H]1NC(=O)[C@H](CCCCN)NC(=O)[C@@H](Cc2c[nH]c3ccccc23)NC(=O)[C@H](Cc2ccc(O)cc2)NC(=O)[C@H](CS)NC(=O)[C@H](CS)NC1=O [cyclo.CYWD KVC, cyclo Cys--Tyr--D--Trp--Lys--Val--Cys] (cyclo(CY[dW]KVC))	0.43
CC(C)[C@@H]1NC(=O)[C@H](CCCCN)NC(=O)[C@@H](Cc2c[nH]c3ccccc23)NC(=O)[C@H](Cc2ccc(O)cc2)NC(=O)[C@H](Cc2ccccc2)N(C)C(=O)[C@H](CCCCNC(=O)CCCCN(CCNCC(C)(C)S)CC(C)(C)S)NC1=O [cyclo.(N--CH3)F.YWD KV.K.[BAT]] (cyclo([NMeF]Y[dW]KVK(X9)))	0.46
C[C@@H](O)[C@@H]1NC(=O)[C@H](CCCCN)NC(=O)[C@@H](Cc2c[nH]c3ccccc23)NC(=O)[C@H](Cc2ccccc2)NC(=O)[C@H](Cc2ccccc2)NC(=O)CSCCC[C@@H](C(N)=O)NC(=O)[C@H](Cc2ccccc2)NC1=O [CH2 CO.FFWD KTF.Hhc.amide] (FF[dW]KTF[hhCys(CH2CO)]-NH2; lactam N-7)	0.41
